ASSAY_REMARKS: Sedimentation equilibrium analytical ultracentrifugation of aPP variants, monomer-n-mer fit (self-association)
Format: physicochemical
SETUP_CONDITIONS: monomer-n-mer fit, 25° C.
No end group written: not given here.
# note: exactly 4 is not below, so it is condition not met; use condition met for n (stoichiometry of the self-associated complex) strictly under it

Prompt: n (stoichiometry of the self-associated complex) strictly < 4 for this substance? avian pancreatic polypeptide (GPSQPTYPGDDAPVEDLIRFYDNLQQYLNVVTRHRY; ends and bridges not checked) [aPP, purchased from American Peptide Company, reference compound]
Response: condition met

Prompt: n (stoichiometry of the self-associated complex) strictly < 4 for this substance? aPP^Y7AT6E: SEQ ID NO: 8, CPSQPEAPGDDAPVEDLIRFYDNLQQYLNVVTRHRY (Table 1 prints GPSQPE...)
Response: condition met

Prompt: n (stoichiometry of the self-associated complex) strictly < 4 for this substance? GPSQPTAPGDDAPVEDLIRFYDNLQQYLNVVTRHRY [aPP^Y7A]
Response: condition met

Prompt: n (stoichiometry of the self-associated complex) strictly < 4 for this substance? GPSQPTAPGDDAVPEDLIRFYDNLQQYLNVVTRHRY [aPP^Y7AP13VV14P]
Response: condition not met

Prompt: n (stoichiometry of the self-associated complex) strictly < 4 for this substance? GPSQPTYPGDDAPVEDLIRFADNLQQYLNVVTRHRY [aPP^Y21A]
Response: condition met

Prompt: n (stoichiometry of the self-associated complex) strictly < 4 for this substance? GPSQPTYPGDDAPVEDLIRAYDNLQQYLNVVTRHRY [aPP^F20A]
Response: condition met
